Reference source: patent US20230303711A1

# subject-of-test: T1, His-tagged human CD47-ECD protein (CD47-His) (human, UniProt Q08722 19-139)
# T1 construct: Expressed in HEK293F cells; also called CD47-His antigen
# protocol-text: competitive ELISA on coated CD47-His (2 µg/mL); blocked ligand SIRPα-Fc-Bio (0.1 µg/mL), HRP-streptavidin, OD450; value is parameter C of the printed 4-parameter fit
parameter-measured: IC50 (µg/mL)
Field: numeric (µg/mL). Do not append units.

Below, 2 binders whose answers are already recorded.
binder	IC50, µg/mL
Antibody 3 (antibody, human IgG1, kappa, V domains shown, Full-length IgG1) VH: QVQLQESGPGLVKPSETLSLTCTVSGGSLDGYYWSWIRQPPGKGLEWIGRIYGNSTTNYNPSLKSRVTISVDTSKNQFSLRLRSVTAADTAVYYCARGGRIFAGYWGQGTLVTVSS VL: DIQMTQSPSSVSASVGDRVTISCRANQAIGTWLAWYQQKPGKAPKLLIYAASTLQSGVPSRFSGSGSGTEFTLTISSLQAEDVAVYYCQQYYTTPLTFGGGTKLEIKR	0.844
Antibody 11 (antibody, human IgG1, kappa, V domains shown, Full-length IgG1) VH: QVQLQESGPGLVKPSETLSLTCTVSGGSLDGYYWSWIRQPPGKGLEWIGRIYDGSGTNYNPSLKSRVTISVDTSKNQFSLRLRSVTAADTAVYYCARGGRIFGGYWGQGTLVTVSS VL: DIQMTQSPSSVSASVGDRVTISCRANQAIGTWLAWYQQKPGKAPKLLIYAASTLQSGVPSRFSGSGSGTEFTLTISSLQAEDVAVYYCQQYYTTPLTFGGGTKLEIKR	0.921

What value of measured IC50 is listed for Antibody 10 (antibody, human IgG1, kappa, V domains shown, Full-length IgG1) VH: QVQLQESGPGLVKPSETLSLTCTVSGGSLDNYYWSWIRQPPGKGLEWIGRIYYNGNTNYNPSLKSRVTISVDTSKNQFSLRLRSVTAADTAVYYCARGGRILAGYWGQGTLVTVSS VL: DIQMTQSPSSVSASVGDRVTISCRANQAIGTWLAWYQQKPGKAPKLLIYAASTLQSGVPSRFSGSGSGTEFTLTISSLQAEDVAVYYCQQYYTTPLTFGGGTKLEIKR ? 1.06
